Origin of measurements: patent US20250325542A1

target: OXA-48 (Klebsiella pneumoniae, UniProt Q6XEC0); assay: biochemical; format: biochemical
Sequence (Q6XEC0 whole entry, looked up, species assumed): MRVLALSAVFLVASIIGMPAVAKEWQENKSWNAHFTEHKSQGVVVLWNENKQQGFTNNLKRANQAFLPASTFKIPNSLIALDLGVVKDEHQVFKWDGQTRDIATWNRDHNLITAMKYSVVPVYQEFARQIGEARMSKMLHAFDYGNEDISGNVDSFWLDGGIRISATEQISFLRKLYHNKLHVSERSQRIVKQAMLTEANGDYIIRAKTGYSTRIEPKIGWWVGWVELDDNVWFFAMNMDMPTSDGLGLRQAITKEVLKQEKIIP
READOUT KIND: Ki (µM)
Please reply with the bare figure in µM and do not write the unit itself.

{"columns": ["MOLECULAR STRING", "SUBJECT OF TEST", "RESULT VALUE"],
 "data": [
  ["COc1cc(-c2cc(O)cc(C(=O)O)c2)ccc1C(=O)O", "OXA-48 (Klebsiella pneumoniae, UniProt Q6XEC0)", 0.63]
]}

Problem: Look up Ki for this compound: CNC(=O)CCc1ccc(CNc2cccc(CCCNCc3ccccc3-c3cccc(C(=O)O)c3)c2)cc1
Solution: 88

====

target: NDM-1 (Klebsiella pneumoniae, UniProt C7C422); assay type: biochemical; details: imipenem 40 μM, NDM-1 2 nM, 10 μM ZnSO4
Sequence (C7C422 whole entry, looked up, species assumed): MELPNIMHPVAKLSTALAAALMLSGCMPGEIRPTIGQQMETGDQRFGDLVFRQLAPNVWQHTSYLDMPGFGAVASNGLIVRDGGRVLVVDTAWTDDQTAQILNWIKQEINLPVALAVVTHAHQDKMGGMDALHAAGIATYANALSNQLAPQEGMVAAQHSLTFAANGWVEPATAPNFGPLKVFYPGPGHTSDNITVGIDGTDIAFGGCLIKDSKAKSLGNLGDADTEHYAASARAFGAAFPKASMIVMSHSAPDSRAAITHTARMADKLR
List of Ki values.
Please reply with the bare figure in µM and do not write the unit itself.

Example entries begin here.
{"columns": ["MOLECULE", "READOUT KIND", "UNIT SYMBOL", "RESULT VALUE"],
 "data": [
  ["NCc1cc(O)cc(NCc2cccc(-c3ccc(C(=O)O)c(O)c3)c2)c1 [CDD-2974]", "Ki", "µM", 3.5],
  ["CNC(=O)CCC1CCN(C(=O)c2ccc(CNCc3ccc(O)c(C(=O)O)c3)s2)CC1 [CDD-2371]", "Ki", "µM", 217],
  ["CNCc1cccc(NCc2ccc(-c3cccc(C(=O)O)c3)o2)c1 [CDD-2602]", "Ki", "µM", 46],
  ["NCc1cncc(NCc2cccc(-c3ccc(C(=O)O)c(O)c3)c2)c1 [CDD-2975]", "Ki", "µM", 25],
  ["CNCc1cccc(NCc2ccc(-c3ccc(O)c(C(=O)O)c3)o2)c1 [CDD-2510]", "Ki", "µM", 60],
  ["CNC(=O)C1CCC(C(=O)NCc2ccc(NCc3ccc(O)c(C(=O)O)c3)nc2)CC1 (stereo not drawn) [CDD-2395]", "Ki", "µM", 153]
]}

Problem: Fill in the recorded Ki for this molecule, with NDM-1 (Klebsiella pneumoniae, UniProt C7C422) as test system: CNC(=O)CCc1ccc(CNCc2cccc(NCc3ccc(-c4ccc(C(=O)O)c(O)c4)o3)c2)cc1 [CDD-2335]
Solution: 13

Problem: What do you get for NCc1cccc(NCc2ccc(-c3cccc(C(=O)O)c3O)o2)c1 [CDD-2567] ?
Solution: 24

Problem: What do you get for CNCc1cccc(NCc2cccc(-c3ccc(C(=O)O)c(O)c3)c2)c1 [CDD-2906] ?
Solution: 11
